This section presents compounds with their documented log10 IC50 values.
tested on: HCT 116 cell line; assay: Inhibition of Cell Growth (MTT tetrazolium salt assay); assay type: cell-based; settings: Homo sapiens; HCT 116, MTT, 50% inhibition of growth; read-out: HCT 116 IC50
Values reflect log10 of reported IC50 (nM).

Ask | Return reported log10 IC50; argument: Cc1c(CCCO)cncc1-c1ccc2[nH]nc(-c3nc4ccccc4[nH]3)c2c1 [Example 60]
Reply | 2.30

Ask | Return reported log10 IC50; argument: Cc1c(-c2cccc(CO)c2)cncc1-c1ccc2[nH]nc(-c3nc4ccccc4[nH]3)c2c1 [Example 69]
Reply | 2.84

Ask | Return reported log10 IC50; argument: Cc1cncc(-c2ccc3[nH]nc(-c4nc5ccccc5[nH]4)c3c2)c1C [Example 75]
Reply | 2.60

Ask | Return reported log10 IC50; argument: O=C(Nc1cccc2c(-c3ccc4[nH]nc(-c5nc6ccccc6[nH]5)c4c3)cncc12)c1cccnc1 [Example 55]
Reply | 3.18

Ask | Return reported log10 IC50; argument: Cc1c(-c2ccc3[nH]nc(-c4nc5ccccc5[nH]4)c3c2)cnc2ccccc12 [Example 76]
Reply | 2.70

Ask | Return reported log10 IC50; argument: Cc1c(-c2ccc3[nH]nc(/C=C/c4ccccc4)c3c2)ccc(CCCO)c1O [Example 22]
Reply | 3.70

Ask | Return reported log10 IC50; argument: CCc1c(-c2ccncc2)cncc1-c1ccc2[nH]nc(-c3nc4ccccc4[nH]3)c2c1 [Example 61]
Reply | 2.34

Ask | Return reported log10 IC50; argument: Cc1c(-c2ccc3[nH]nc(-c4nc5ccccc5[nH]4)c3c2)cncc1-c1c[nH]cn1 [Example 65]
Reply | 2.59

Ask | Return reported log10 IC50; argument: Nc1cccc2c(-c3ccc4[nH]nc(/C=C/c5ccccc5)c4c3)cncc12 [Example 45]
Reply | 3.32

Ask | Return reported log10 IC50; argument: Cc1c(CN(C)C)cncc1-c1ccc2[nH]nc(-c3nc4ccccc4[nH]3)c2c1 [Example 73]
Reply | 2.30

Ask | Return reported log10 IC50; argument: Cc1c(-c2ccc3[nH]nc(-c4nc5ccccc5[nH]4)c3c2)cncc1-c1ccccn1 [Example 62]
Reply | 3.00

Ask | Return reported log10 IC50; argument: C(=N\n1cccc1)/c1n[nH]c2ccc(-c3cncc4ccccc34)cc12 [Example 79]
Reply | 2.70

Ask | Return reported log10 IC50; argument: Cc1c(-c2ccncc2)cncc1-c1ccc2[nH]nc(-c3nc4c(CN(C)C)cccc4[nH]3)c2c1 [Example 68]
Reply | 2.20

Ask | Return reported log10 IC50; argument: OCCc1cccc2[nH]c(-c3n[nH]c4ccc(-c5cncc6ccccc56)cc34)nc12 [Example 30]
Reply | 2.26

* * *

This section presents compounds with their documented log10 Ki values.
target: CDK4/cyclin D3 (Homo sapiens); experiment: Inhibition of CDK4/Cyclin D Retinoblastoma Kinase Activity; assay type: biochemical; conditions: apparent Ki
Sequence (P11802 2-303 limits assumed): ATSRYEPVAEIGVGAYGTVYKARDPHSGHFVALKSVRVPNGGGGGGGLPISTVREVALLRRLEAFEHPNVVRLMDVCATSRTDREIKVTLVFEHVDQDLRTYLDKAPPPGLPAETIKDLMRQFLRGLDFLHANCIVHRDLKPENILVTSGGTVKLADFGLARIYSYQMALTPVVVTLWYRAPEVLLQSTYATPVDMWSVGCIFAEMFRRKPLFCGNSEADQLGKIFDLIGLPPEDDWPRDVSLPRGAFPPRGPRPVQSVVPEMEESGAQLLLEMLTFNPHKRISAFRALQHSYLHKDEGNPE
Sequence (P30281 1-264 limits assumed, further chain): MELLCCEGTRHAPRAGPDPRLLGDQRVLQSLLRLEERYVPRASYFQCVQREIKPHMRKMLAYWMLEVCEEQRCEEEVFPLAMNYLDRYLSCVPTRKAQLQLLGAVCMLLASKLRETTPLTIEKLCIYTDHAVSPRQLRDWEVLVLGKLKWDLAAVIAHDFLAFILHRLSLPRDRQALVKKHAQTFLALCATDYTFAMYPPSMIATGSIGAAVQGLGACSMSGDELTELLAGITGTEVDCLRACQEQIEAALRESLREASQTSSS
Values reflect log10 of reported Ki (nM).

Clc1ccncc1-c1ccc2[nH]nc(/C=C/c3ccccc3)c2c1 = 0.91
OCc1cccc2[nH]c(-c3n[nH]c4ccc(-c5cncc6ccccc56)cc34)nc12 = 0.89
CCNCc1cncc(-c2ccc3[nH]nc(-c4nc5ccccc5[nH]4)c3c2)c1C = -0.28
O=[N+]([O-])c1ccc2[nH]nc(-c3ccc[nH]3)c2c1 [18b′, 5-Nitro-3-(2-Pyrrolyl)-1H-indazole] = 3.82

Ask | Return reported log10 Ki; argument: C(=N\n1cccc1)/c1n[nH]c2ccc(-c3cncc4ccccc34)cc12
Reply | 0.34

Ask | Return reported log10 Ki; argument: CC(C)(C)NCc1cccc2[nH]c(-c3n[nH]c4ccc(-c5cncc6ccccc56)cc34)nc12
Reply | 0.95

Ask | Return reported log10 Ki; argument: CCNCc1cccc2[nH]c(-c3n[nH]c4ccc(-c5cncc6ccccc56)cc34)nc12
Reply | -0.12
